Give measured Radioactivity distribution Fat for each item. Keep answers brief.
experiment: In vivo kinetics experiment (radioactivity distribution); set-up: species or system Wistar male rat; conditions: 30 min after administration; rat i.v.; mean ± SD
Number in % ID/g, nothing else.

Lookup: Respond only with Radioactivity distribution Fat recorded for CCn1c(-c2cncc(Cn3ccnc3)c2)nc2ccc([123I])cc21 [[^123I] 608]
Found: 0.10

Lookup: Note Radioactivity distribution Fat for the compound shown: COc1cc([123I])cc2c1nc(-c1cncc(Cn3ccnc3)c1)n2C1CC1 [[^123I] 609]
Found: 0.10

Lookup: Fill in Radioactivity distribution Fat for record FCCn1c(-c2cncc(Cn3ccnc3)c2)nc2ccc([123I])cc21 [[^123I] 604]
Found: 0.12

Lookup: Give Radioactivity distribution Fat for the following compound: Fc1cc2nc(-c3cncc(Cn4ccnc4)c3)n(Cc3ccc([123I])cc3)c2cc1Cl [[^123I] 605]
Found: 0.14

Lookup: Give a short answer stating reported Radioactivity distribution Fat for CC(C)n1c(-c2cncc(Cn3ccnc3)c2)nc2ccc([123I])cc21 [[^123I] 606] .
Found: 0.12

Lookup: Provide only the value of recorded Radioactivity distribution Fat for FCCn1c(-c2cncc(Cn3cncc3[123I])c2)nc2cc(F)c(Cl)cc21 [[^123I] 610]
Found: 0.18

Lookup: Identify Radioactivity distribution Fat associated with the compound Cn1c(-c2cncc(Cn3ccnc3)c2)nc2ccc([123I])cc21 [[^123I] 607]
Found: 0.13

---

assay: In vivo kinetics experiment (radioactivity distribution); set-up: species or system Wistar male rat; details: 60 min after administration; rat i.v.; mean ± SD
# label = Condition met if Radioactivity distribution Fat < 0.1 % ID/g else Condition not met

Lookup: Is 0.1 % ID/g strictly greater than the compound's reported Radioactivity distribution Fat? compound: CCn1c(-c2cncc(Cn3ccnc3)c2)nc2ccc([123I])cc21 [[^123I] 608]
Found: Condition not met

Lookup: Item Fc1cc2nc(-c3cncc(Cn4ccnc4)c3)n(Cc3ccc([123I])cc3)c2cc1Cl [[^123I] 605] : Radioactivity distribution Fat beneath 0.1 % ID/g, strictly?
Found: Condition not met

Lookup: Input CC(C)n1c(-c2cncc(Cn3ccnc3)c2)nc2ccc([123I])cc21 [[^123I] 606] ; condition: Radioactivity distribution Fat strictly below 0.1 % ID/g. Does it hold?
Found: Condition met

Lookup: API: query returns whether the compound falls strictly under 0.1 % ID/g in Radioactivity distribution Fat. Query: FCCn1c(-c2cncc(Cn3cncc3[123I])c2)nc2cc(F)c(Cl)cc21 [[^123I] 610]
Found: Condition not met

Lookup: Is it true that Radioactivity distribution Fat reported for COc1cc([123I])cc2c1nc(-c1cncc(Cn3ccnc3)c1)n2C1CC1 [[^123I] 609] is less than 0.1 % ID/g?
Found: Condition met

Lookup: Consider the compound FCCn1c(-c2cncc(Cn3ccnc3)c2)nc2ccc([123I])cc21 [[^123I] 604] . Is its Radioactivity distribution Fat strictly less than 0.1 % ID/g?
Found: Condition not met

---

experiment: In vivo kinetics experiment (radioactivity distribution); parameters: species or system Wistar male rat; settings: rat, caudal vein, 10 min after administration
parameter: Adrenal gland/fat ratio of radioactivity accumulation
Number, no unit, nothing else.

Lookup: Please look at this molecule and report its Adrenal gland/fat ratio of radioactivity accumulation: [123I]c1ccc2nc(-c3cncc(Cn4ccnn4)c3)n(C3CC3)c2c1 [[^123I] 603]
Found: 49.21

Lookup: Specify reported Adrenal gland/fat ratio of radioactivity accumulation for the molecule shown: Fc1cc2nc(-c3cncc(Cn4ccnc4)c3)n(CC[18F])c2cc1Br [[^18F] 200]
Found: 174.42

Lookup: Please supply the value of reported Adrenal gland/fat ratio of radioactivity accumulation for the item [123I]c1ccc2nc(-c3cncc(Cn4ccnc4)c3)n(C3CC3)c2c1 [[^123I] 602]
Found: 89.23

Lookup: Provide only the value of recorded Adrenal gland/fat ratio of radioactivity accumulation for Fc1cc2nc(-c3cncc(Cn4ccnc4)c3)n(CC[18F])c2cc1Cl [[^18F] 100]
Found: 141.33

Lookup: Quickly give me recorded Adrenal gland/fat ratio of radioactivity accumulation for Fc1cc2nc(-c3cncc(Cn4ccnc4)c3)n(CCC[18F])c2cc1Cl [[^18F] 500]
Found: 210.51

Lookup: Give me measured Adrenal gland/fat ratio of radioactivity accumulation, please, for this molecule: FCCn1c(-c2cncc(Cn3ccnc3)c2)nc2cc(F)c([123I])cc21 [[^123I] 400]
Found: 89.23
